Reference source: PubChem BioAssay AID624291

# EXPERIMENT_DESCRIPTION: qHTS for Activators of Integrin-Mediated Alleviation for Muscular Dystrophy; also: nearly all actives have a fitted effect of over 60% in size
# TEST_CONTEXT: alpha7betagal myoblasts, beta-gal FDG fluorescence, 48 h; series mostly up to 38.3 µM
Screen size: about 350,000 compounds; about 220 (0.063%) were called active. About 4% were inconclusive and are not listed. Calls follow the shape of the dose curve; as a rule, active = well fitted activation curve with a large enough effect; inconclusive = small, poorly fitted or top-dose-only effect; inactive = no such curve, though single readings can be large or run the other way. The sample holds actives, similar compounds and a random draw of the others, so the mix is not that of the screen.
Possible outcomes: True = active, False = inactive

[[record]]
molecule = "CCCCCCN1C[C@H](O)[C@@H](n2cc(C3CC3)nn2)C[C@@H]1c1ccc(Cl)cc1"
discrete_label = "False"

[[record]]
molecule = "Cc1ccc(-c2ccc(CN3C(C)C(=O)N(Cc4cn(CCC5OCCCO5)nn4)CCS3(=O)=O)cc2)cc1 (stereo not given)"
discrete_label = "False"

[[record]]
molecule = "Cc1cccc(C(=O)NC2CCN(CC(=O)Nc3cccc(Cl)c3)CC2)c1"
discrete_label = "False"

[[record]]
molecule = "CN1OC[C@@H]2CN[C@H](c3ccc(-c4ccccc4)cc3)C[C@@H]21"
discrete_label = "False"

[[record]]
molecule = "O=C(Nc1cc(F)ccc1F)c1ccc2c(=O)n3c(nc2c1)CCC3"
discrete_label = "False"

[[record]]
molecule = "O=C(NCCc1cccc(F)c1)C1CC(O)CN1C(=O)Nc1ccccc1 (stereo not given)"
discrete_label = "False"

[[record]]
molecule = "COc1ccc(OC)c(C(=O)NC2CCCc3c2cnn3-c2cc(C)cc(C)c2)c1 (stereo not given)"
discrete_label = "False"

[[record]]
molecule = "Cc1ccc(Cc2c(-c3ccccc3)nc3ccc(Cl)cn23)cc1"
discrete_label = "False"

[[record]]
molecule = "O=C(C[C@H]1C[C@@H]2c3cc(NC(=O)C4CCC4)ccc3O[C@@H]2[C@H](CO)O1)NC1CCCCC1"
discrete_label = "False"

[[record]]
molecule = "CNC(=S)N1CCC(NC(=O)C(Cc2ccc(F)cc2)NC(C)=O)CC1 (stereo not given)"
discrete_label = "True"

